assayed_system: HLA-A*02:03
test_method_notes: IEDB peptide-MHC binding, purified MHC/competitive/radioactivity; filed as Kd, often an IC50 or EC50 that approximates it; bounds were set here for any values at or beyond the usual limits of such assays
measurement_parameters: source organism: Homo sapiens
parameter_measured: pKd
Scale: negative log10 of molar concentration, which is what pKd denotes.

LLHQSSDKFV 7.11
FMECNLNELV 7.15

Now for another entry.
Lookup: Hello, please tell me recorded pKd for this one: `KLTKDFSAL`
Found: 7.47

###

assayed_system: HLA-B*44:03
test_method_notes: IEDB peptide-MHC binding, purified MHC/competitive/radioactivity; filed as Kd, often an IC50 or EC50 that approximates it; bounds were set here for any values at or beyond the usual limits of such assays
measurement_parameters: source organism: SARS coronavirus Tor2
The sequences listed here are annotated with their Kd.
Answer in nM, number only, no unit symbol.

TEFACVVAEA 393
GETALALLLL 149

Lookup: # assay system HLA-B*44:03: give Kd of `VENPDILRV`
Found: 250
